- Assay summary: PAMPA membrane permeability assay
- Format: in vitro ADME
- Condition summary: PAMPA permeability coefficient, GIT lipid, buffer pH 7.4, 4 hours incubation
Metric name: PAMPA (10^−6 cm/s)

Molecule	Metric name	Experimental result
Cc1cccc(C)c1NC(=O)C[n+]1cccc(C(F)(F)F)c1	PAMPA (10^−6 cm/s)	++ (0.1-2.0 10^−6 cm/s)
Cc1cccc(C)c1NC(=O)C[n+]1c(C)cccc1C.[Br-]	PAMPA (10^−6 cm/s)	++ (0.1-2.0 10^−6 cm/s)
CCCCCCn1cc[n+](CC(=O)Nc2c(C)cccc2C)c1	PAMPA (10^−6 cm/s)	+ (<0.1 10^−6 cm/s)
COc1cc(C)c(NC(=O)C[n+]2ccccc2)c(C)c1.[Br-] [Compound 10A]	PAMPA (10^−6 cm/s)	+ (<0.1 10^−6 cm/s)
Cc1cccc(C)c1NC(=O)C[n+]1ccccc1.[Br-]	PAMPA (10^−6 cm/s)	++ (0.1-2.0 10^−6 cm/s)

Give PAMPA (10^−6 cm/s) for each of the items listed below.
1. Cc1cccc(C)c1NC(=O)C[n+]1ccc2ccccc2c1.[Br-] [Compound 15A]
2. Cc1cccc(C)c1NC(=O)C[n+]1ccccc1C.[Br-]
3. Cc1cccc(C)c1NC(=O)C(Cc1ccccc1)[n+]1ccccc1 (stereo not shown)
4. Cc1cccc(C)c1NC(=O)C(CC(C)C)[n+]1ccccc1 (stereo not shown)
5. Cc1cccc(C)c1NC(=O)C[n+]1ccc(C(N)=O)c(C(F)(F)F)c1
6. Cc1cccc(C)c1NC(=O)C[n+]1cccc2ccccc21.[Br-] [Compound 18A]
7. Cc1cccc(C)c1NC(=O)C[n+]1ccn(C(C)C)c1

Given back:
1. ++ (0.1-2.0 10^−6 cm/s)
2. + (<0.1 10^−6 cm/s)
3. + (<0.1 10^−6 cm/s)
4. ++ (0.1-2.0 10^−6 cm/s)
5. + (<0.1 10^−6 cm/s)
6. + (<0.1 10^−6 cm/s)
7. + (<0.1 10^−6 cm/s)

====

- Assay summary: PAMPA membrane permeability assay
- Assay type: in vitro ADME
- Condition summary: PAMPA permeability coefficient, GIT lipid, buffer pH 7.4, 4 hours incubation
Metric name: PAMPA (10^−6 cm/s)

Please review the following examples before continuing.
Compound	PAMPA (10^−6 cm/s)
Cc1cccc(C)c1NC(=O)C[n+]1cc2ccccc2n1C	++ (0.1-2.0 10^−6 cm/s)
CCCC(C(=O)Nc1c(C)cccc1C)[n+]1ccccc1 (stereo not shown)	+ (<0.1 10^−6 cm/s)
Cc1cccc(C)c1NC(=O)C[n+]1ccccc1-c1ccccc1.[Br-] [Compound 16A]	++ (0.1-2.0 10^−6 cm/s)
Cc1cccc(C)c1NC(=O)C[n+]1ccn(C)c1.[Br-]	+ (<0.1 10^−6 cm/s)

Batch lookup, PAMPA (10^−6 cm/s) per entry.
1. CCOC(=O)c1cc(C)[n+](CC(=O)Nc2c(C)cccc2C)n1C
2. Cc1cccc(C)c1NC(=O)C[n+]1ccn(-c2ccc(Cl)cc2)c1
3. CCOC(=O)CCn1ccc[n+]1CC(=O)Nc1c(C)cccc1C

Given back:
["+ (<0.1 10^−6 cm/s)", "++ (0.1-2.0 10^−6 cm/s)", "+ (<0.1 10^−6 cm/s)"]

====

What inhibition at 10 µM was measured for each of the following?
- Tested on: NaV1.7 (Homo sapiens)
- Construct: expressed in transfected cells; tetracycline-inducible, kept under hygromycin and blasticidin
- Assay summary: Whole cell patch clamp, internal block of NaV1.7 current (compound in internal solution)
- Assay type: cell-based
- Condition summary: % inhibition at 10 μM, compound applied internally, manual patch clamp; read-out: Nav1.7 Intracellular Inhibition
- Procedure: Representative compounds of the invention were synthesized according to the described methods and tested for the ability to inhibit voltage-gated sodium channels. NaV1.7 was expressed upon induction with tetracycline. […] Once the recording was started, the voltage protocol was run at 30 second intervals for 5 minutes to get a stable baseline. […] Currents were recorded using PatchMaster software with Heka EPC10 (HEKA Electronics, Lambrecht, Germany). […]

Answered examples (2):
Compound	Tested on	inhibition at 10 µM
CCOC(=O)Cn1cc(C)c[n+]1CC(=O)Nc1c(C)cccc1C [Compound 76]	NaV1.7 (Homo sapiens)	70 to 95%
Cc1cccc(C)c1NC(=O)C[n+]1cccc(C(C)(C)C)c1 [Compound 32]	NaV1.7 (Homo sapiens)	70 to 95%

Quick request: inhibition at 10 µM for each listed item, please.
1. Cc1cccc(C)c1NC(=O)C[n+]1cccc(N)c1 [Compound 49]
2. Cc1cccc(C)c1NC(=O)C(CC(C)C)[n+]1ccccc1 (centres unmarked) [Compound 108]
3. Cc1cccc(C)c1NC(=O)C[n+]1cc2ccccn2c1 [Compound 35]

Given back:
1. 70 to 95%
2. 70 to 95%
3. 40 to 70%

====

- Tested on: NaV1.7 (Homo sapiens)
- Construct: expressed in transfected cells; tetracycline-inducible, kept under hygromycin and blasticidin
- Assay summary: Whole cell patch clamp, external block of NaV1.7 current (compound in external solution)
- Type: cell-based
- Condition summary: % inhibition at test concentration 30 μM, compound applied externally; read-out: Nav1.7 Extracellular Inhibition
Metric name: inhibition at 30 µM

Reference set (3 entries):
Compound	Experimental result
CCc1ccc[n+](CC(=O)Nc2c(C)cccc2C)c1.[Br-] [Compound 17A]	< 40%
CCOC(=O)c1ccc[n+](CC(=O)Nc2c(C)cccc2C)c1.[Br-] [Compound 25A]	40 to 70%
Cc1cccc(C)c1NC(=O)C[n+]1cccc(-c2ccccc2)c1.[Br-] [Compound 12A]	< 40%

Please examine the following record next.
Asked: What value of measured inhibition at 30 µM is listed for CCc1cccc[n+]1CC(=O)Nc1c(C)cccc1C.[Br-] [Compound 13A] ?
Given back: < 40%

====

- Tested on: NaV1.7 (Homo sapiens, UniProt Q15858)
- Construct: expressed in transfected cells; tetracycline-inducible, kept under hygromycin and blasticidin
- Sequence (Q15858 whole entry): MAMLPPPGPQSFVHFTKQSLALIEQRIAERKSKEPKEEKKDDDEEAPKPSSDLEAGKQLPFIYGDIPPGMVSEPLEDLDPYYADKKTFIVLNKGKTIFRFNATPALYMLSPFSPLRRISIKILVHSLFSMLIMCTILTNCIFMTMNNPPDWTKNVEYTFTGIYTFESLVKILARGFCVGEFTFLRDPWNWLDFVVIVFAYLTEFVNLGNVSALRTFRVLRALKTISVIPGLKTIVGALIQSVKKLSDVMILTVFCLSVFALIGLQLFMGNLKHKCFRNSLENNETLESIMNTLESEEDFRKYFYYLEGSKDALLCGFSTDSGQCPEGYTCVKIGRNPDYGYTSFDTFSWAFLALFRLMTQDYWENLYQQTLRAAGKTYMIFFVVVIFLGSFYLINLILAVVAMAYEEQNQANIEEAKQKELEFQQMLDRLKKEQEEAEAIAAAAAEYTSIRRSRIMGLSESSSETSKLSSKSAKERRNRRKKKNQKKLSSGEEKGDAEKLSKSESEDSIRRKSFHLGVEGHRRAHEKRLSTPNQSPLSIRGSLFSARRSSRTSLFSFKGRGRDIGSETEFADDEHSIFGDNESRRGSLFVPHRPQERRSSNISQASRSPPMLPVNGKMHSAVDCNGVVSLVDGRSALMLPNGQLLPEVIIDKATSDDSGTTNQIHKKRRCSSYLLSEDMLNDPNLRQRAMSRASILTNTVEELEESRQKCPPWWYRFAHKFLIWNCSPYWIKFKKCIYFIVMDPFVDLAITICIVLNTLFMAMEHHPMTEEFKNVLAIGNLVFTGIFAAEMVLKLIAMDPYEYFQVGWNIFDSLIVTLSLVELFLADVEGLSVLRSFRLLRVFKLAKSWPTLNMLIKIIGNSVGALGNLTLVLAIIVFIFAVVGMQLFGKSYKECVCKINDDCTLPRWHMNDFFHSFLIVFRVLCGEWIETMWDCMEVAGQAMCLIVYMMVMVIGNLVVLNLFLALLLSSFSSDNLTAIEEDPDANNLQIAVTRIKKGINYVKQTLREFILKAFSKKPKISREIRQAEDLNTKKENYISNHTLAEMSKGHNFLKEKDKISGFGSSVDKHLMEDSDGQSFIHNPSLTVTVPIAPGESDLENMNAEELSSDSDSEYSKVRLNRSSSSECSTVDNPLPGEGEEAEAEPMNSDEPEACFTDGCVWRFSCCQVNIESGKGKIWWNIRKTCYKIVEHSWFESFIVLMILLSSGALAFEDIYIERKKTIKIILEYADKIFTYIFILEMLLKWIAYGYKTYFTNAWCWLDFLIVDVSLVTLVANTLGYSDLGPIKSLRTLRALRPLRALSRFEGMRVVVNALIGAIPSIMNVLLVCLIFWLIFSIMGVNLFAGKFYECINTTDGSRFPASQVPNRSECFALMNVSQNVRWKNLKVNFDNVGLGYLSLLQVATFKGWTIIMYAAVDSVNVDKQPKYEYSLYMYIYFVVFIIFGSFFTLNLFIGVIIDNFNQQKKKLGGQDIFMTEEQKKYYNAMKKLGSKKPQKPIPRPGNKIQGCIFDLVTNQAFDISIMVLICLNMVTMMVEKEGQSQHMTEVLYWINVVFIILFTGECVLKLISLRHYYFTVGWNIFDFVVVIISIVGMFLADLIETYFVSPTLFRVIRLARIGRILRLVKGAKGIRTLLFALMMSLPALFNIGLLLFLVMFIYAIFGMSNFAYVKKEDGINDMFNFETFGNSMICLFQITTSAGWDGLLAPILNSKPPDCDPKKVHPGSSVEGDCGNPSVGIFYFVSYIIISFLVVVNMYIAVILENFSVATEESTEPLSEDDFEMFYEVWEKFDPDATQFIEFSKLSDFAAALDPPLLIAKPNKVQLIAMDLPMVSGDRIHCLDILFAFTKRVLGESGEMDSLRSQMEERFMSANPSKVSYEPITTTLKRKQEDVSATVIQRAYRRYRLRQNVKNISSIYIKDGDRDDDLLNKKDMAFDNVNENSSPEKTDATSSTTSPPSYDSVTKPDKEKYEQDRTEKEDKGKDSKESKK
- Assay summary: Automated patch clamp (Qube 384), external block of NaV1.7 in HEK293 cells
- Assay type: cell-based
- Condition summary: compound in external solution, read-out: Nav1.7 Extracellular Inhibition (IC50)
pIC50: −log10 of the molar value.
Would you kindly list pIC50 for each of these compounds?

Would you please look over these solved cases?
Compound	pIC50
Cc1cccc(C)c1NC(=O)C[n+]1cc(N)cc(C(F)(F)F)c1 [Compound 91]	4.00 to 4.52
Cc1cccc(C)c1NC(=O)C[n+]1cc(OCc2ccccc2)ccc1Cl [Compound 103]	4.00 to 4.52
Cc1cccc(C)c1NC(=O)C[n+]1cc(-c2ccccc2)c2ccccc2c1 [Compound 100]	> 5.00
Cc1cccc(C)c1NC(=O)C(CC(C)C)[n+]1ccccc1 (centres unmarked) [Compound 108]	< 4.00
Cc1cccc(C)c1NC(=O)C[n+]1cccc(S(C)(=O)=O)c1 [Compound 46]	4.52 to 5.00
CCCCn1ccc[n+]1CC(=O)Nc1c(C)cccc1C [Compound 83]	< 4.00
CCn1c(C)cc[n+]1CC(=O)Nc1c(C)cccc1C [Compound 104]	< 4.00
Cc1cccc(C)c1NC(=O)C[n+]1cccn1CC1CC1 [Compound 73]	< 4.00
Cc1cccc(C)c1NC(=O)C[n+]1ccccc1-c1ccccc1 [Compound 16]	< 4.00
Cc1cccc(C)c1NC(=O)C[n+]1cccc(Cc2ccccc2)c1 [Compound 34]	> 5.00

The following compounds each have a reported value; give each one's pIC50.
1. Cc1cccc(C)c1NC(=O)C[n+]1c(C)cc(C)n1C [Compound 94]
2. Cc1cccc(C)c1NC(=O)C[n+]1cc(F)c2ccccc2c1 [Compound 67]
3. CCOC(=O)Cn1ccc(C)[n+]1CC(=O)Nc1c(C)cccc1C [Compound 85]
4. CCNC(=O)Cn1ccc[n+]1CC(=O)Nc1c(C)cccc1C [Compound 30]
5. Cc1cccc(C)c1NC(=O)C(Cc1ccccc1)[n+]1ccccc1 (centres unmarked) [Compound 106]
6. Cc1cccc(C)c1NC(=O)C[n+]1cccn1CCC(C)C [Compound 74]
7. Cc1cccc(C)c1NC(=O)C[n+]1cccc(OCc2ccccc2)c1 [Compound 88]

Given back:
["4.00 to 4.52", "> 5.00", "< 4.00", "< 4.00", "< 4.00", "< 4.00", "< 4.00"]

Hi there! I need pIC50 for each item below, if you can.
1. CCCn1c(C)cc[n+]1CC(=O)Nc1c(C)cccc1C [Compound 81]
2. Cc1cccc(C)c1NC(=O)C[n+]1cccc(OC(C)C)c1 [Compound 87]
3. Cc1cccc(C)c1NC(=O)C[n+]1c(C)cccc1C [Compound 6]

Given back:
1. < 4.00
2. < 4.00
3. < 4.00

====

- Tested on: NaV1.7 (Homo sapiens, UniProt Q15858)
- Construct: expressed in transfected cells; tetracycline-inducible, kept under hygromycin and blasticidin
- Assay summary: Automated patch clamp (Qube 384), internal block of NaV1.7 in HEK293 cells
- Type: cell-based
- Condition summary: compound in internal solution, read-out: Nav1.7 Intracellular Inhibition (IC50)
Consider the following compounds; for each one, report its IC50.

Chemical smiles	IC50
Cc1cccc(C)c1NC(=O)C[n+]1cc(-c2ccccc2)n(C)c1	3 to 10 µM

I would be grateful if you could provide IC50 for each of the following entries.
1. CCOC(=O)CCn1ccc[n+]1CC(=O)Nc1c(C)cccc1C
2. Cc1cccc(C)c1NC(=O)C[n+]1cccc(Cc2ccccc2)c1
3. Cc1cccc(C)c1NC(=O)C[n+]1cccc(-c2ccccc2)c1

Given back:
1. 1 to 3 µM
2. < 1 µM
3. 1 to 3 µM

The values you see were collected from patent US10934263B2.
